- Test system: SNB-75 CNS
- runDescription: NCI-60 one-dose screen, 48 h (100 = growth as untreated, 0 = no growth, -100 = all killed)
- statedConditions: 10 µM unless noted
About 83,000 compounds went through this panel and 20% of them were active in at least one assay; those are over-represented in the sample as a whole. The source made the active and inactive calls. The calls were made as follows: active = growth percent below 10; inactive = the rest.
reportedEndpoint: growth

What growth value was documented for this molecule, COC(=O)C(OC(C)=O)C(OC(C)=O)c1ccc(OC)c(OC)c1 (centres undefined) ? 96.4% (inactive)

Next molecule up: Cc1nnc2c(Cc3ccccc3)nc3ccccc3n12 78.1% (inactive)

Now give it for CC(=O)c1ccc(NS(=O)(=O)c2cccc(C(=O)Nc3ccc(Br)cc3)c2)cc1 too. 78.3% [25 µM] (inactive)

# iterate: Cc1ncc(C(=O)Nc2ccc(CN3CCN(C)CC3)c(C(F)(F)F)c2)cc1C#Cc1cnc(N)cc1C#N 37% (inactive)

// next record CC(=O)[C@@H]1CC[C@]2(C(N)=O)CC[C@]3(C)[C@H](CC[C@@H]4[C@@]5(C)CCCNC(C)(C)[C@@H]5CC[C@]43C)[C@@H]12 80.4% (inactive)

Subsequent entry: COc1ccc(NC(=O)c2cc(NCc3cc(O)ccc3O)ccc2O)cc1 101% (inactive)

Then C#Cc1cccc(NC(=O)Nc2cccc(NC(=O)CCl)c2)c1 ? 30% [8.25 µM] (inactive)

Can you handle CC1(C)CC(=O)C2=C(C1)N(c1ccc(F)cc1F)C(N)=C(C#N)C2c1cc(Br)ccc1F (centres undefined) next? 67.1% (inactive)

Next up: Cc1ccc(-c2[nH][nH]c(=O)c2-c2nc3ccccc3s2)cc1 79.4% (inactive)

* * *

- Tested on: NCI-H522 lung
- runDescription: NCI-60 one-dose screen, 48 h
- statedConditions: 10 µM unless noted
This is part of a sample that, as a whole, favours compounds with a hit. Of some 83,000 tested, about 20% had one in any assay. Calls of active or inactive are those of the source. The calls were made as follows: active = growth percent below 10; inactive = the rest.
In this exercise, the only acceptable responses are active, inactive

Dear all, I need the recorded test outcome for CC(=O)CCC(=O)OCc1cc(=O)c(O)co1 , thank you. inactive

Another compound to check: CNC(=O)c1cccc(Cn2nc(C)c(NC(=O)c3ccc(COc4ccc(C(F)(F)F)cc4C)cc3)c2C)n1 inactive

CN1CCN(C(=O)[C@]23CCC(C)(C)C[C@H]2C2=CC[C@@H]4[C@@]5(C)C/C(=C/c6ccncc6)C(=O)C(C)(C)[C@@H]5CC[C@@]4(C)[C@]2(C)CC3)CC1 , same question. inactive

Now the same for C[C@@H](Nc1ncnc2ccc(-c3cnc(N)nc3)cc12)c1ccc(F)cc1 inactive

Same thing, different compound: CCCCOc1ccc(/C=N/Nc2cc(C)nc3ccc(Br)cc23)cc1 inactive

Would you mind doing CCCCNC(=O)Oc1ccc(/C(=C(\C)c2ccccc2)c2ccc(OCCN3CCCCC3)cc2)cc1 as well? inactive

Please give the result for O=C(/C(=C\c1ccc([N+](=O)[O-])cc1)S(=O)Cc1ccc(F)cc1)c1ccc(F)cc1 (stereo not drawn) too. active

Please do the same for CC1=CCC(OC(=O)C(C)(O)CCC(O)(C(=O)OC2(C)C=CC(O)(C(C)C)CC2)C(C)C)(C(C)C)CC1 (stereo not drawn) as well. inactive

Next up: Cc1cc2nc3c4ccc(Br)cc4n(CCN(C)C)c3nc2cc1C active

# iterate: C=C(C)[C@@H]1CC[C@]2(C(=O)N[C@@H](Cc3ccccc3)C(=O)OC)CC[C@]3(C)[C@H](CC[C@@H]4[C@@]5(C)CCC(=O)C(C)(C)[C@@H]5CC[C@]43C)[C@@H]12 inactive

Another compound: CCCCCCNC(=O)Oc1ccc(/C(=C(\C)c2ccccc2)c2ccc(OCCCN(C)C)cc2)cc1 inactive

Ok, now O=C1Nc2cc(-c3ccc(NC(=O)c4ccccc4)cc3)ccc2/C1=C/c1ccc[nH]1 inactive

Check N/C(=N\C(N)=N\c1nc2ccccc2s1)c1ccnc(Br)c1 too. active

Same for COc1ccc(/C=C/C(=O)Nc2cc(/C=C\c3cc(OC)c(OC)c(OC)c3)cc(OC)c2OC)cc1OC active

And for CCN1C(=O)N(CC)C2Nn3c(s/c(=C\c4ccc(OC)cc4)c3=O)=NC21 (stereo not drawn) ? inactive

Also check COc1ccccc1NC(=O)C1CC(c2ccc(F)cc2)=NO1 (stereo not drawn) inactive

Then this compound: O=C1Nc2ccccc2/C1=C\c1c(-c2ccccc2)nc2ccccn12 inactive

Consider next the compound O=C1CC(=O)OC(c2ccc([N+](=O)[O-])cc2)O1 in the same way. active

* * *

- Tested on: MALME-3M melanoma
- runDescription: NCI-60 one-dose screen, 48 h
- statedConditions: 10 µM unless noted
- Experimental: Cells are grown in 96 well plates and exposed to the test compound for 48 hours. Compounds are tested at a single concentration, which is 10^-5 M for most compounds. The reported endpoint is percent growth (GI% or GIPRCNT), where numbers from 0 - 100% represent growth inhibition, and numbers from -100% - 0 represent cell death. For example, a value of 40 represents 60% growth inhibition. A value of 0 means no net growth occurred over the course of the experiment. […]
This is part of a sample that, as a whole, favours compounds with a hit. Of some 83,000 tested, about 20% had one in any assay. Activity calls are given as the source filed them. The calls were made as follows: active = growth percent below 10; inactive = the rest.
// one of active, inactive, no free text

GET /call?item= C#Cc1cccc(NC(=O)Nc2cccc(NC(=O)CCl)c2)c1 returns the recorded outcome of this test. active

Same question for COC(=O)N[C@H]1CCc2c(Cl)c(OC)c(OC)c(OC)c2-c2ccc(SC)c(=O)cc21 please. inactive

And the next one, Nc1n[nH]c2cccc(C#Cc3cccc(C(=O)Nc4cccc(C(F)(F)F)c4)c3)c12 ? inactive

Then COc1cc2cc(CN3CCN(c4nccc(-c5ccc6ccccc6c5)n4)CC3)c(=O)[nH]c2cc1OC ? inactive

Item: COc1ccc2c(c1)C(=O)CC(c1ccccc1OC)O2 (stereo not given) inactive

Input Cc1cccc(C)c1N=c1oc2ccc(Cl)cc2nc1-c1ccccc1O inactive

Try this compound too: Oc1ccc(C2c3ccccc3Oc3ccccc32)c2cccnc12 inactive

Can you check COc1cc(C2C3=C(COC3=O)N(CCO)c3cc4c(cc32)CCC4)cc(OC)c1OC (stereo not given) next? inactive

Now the same for CCCCCCCCOc1ccc(/C=N/Nc2cc(C)nc3ccc(Br)cc23)cc1 inactive

Same lookup for CCCOC(=O)N[C@H]1CCc2c(Cl)c(OC)c(OC)c(OC)c2-c2ccc(SC)c(=O)cc21 , please. inactive

* * *

- Test system: SK-MEL-28 melanoma
- runDescription: NCI-60 one-dose screen, 48 h (100 = growth as untreated, 0 = no growth, -100 = all killed)
- statedConditions: 10 µM unless noted
The panel holds about 83,000 compounds, 20% with a hit somewhere; the sample as a whole holds those more often.
Exercise: state measured growth for each of the molecules provided.
Please reply with the bare figure in % and do not write the unit itself.

What measured growth goes with CC(C)c1ccc(Nc2ccc3c(OCCCN4CCN(C)CC4)cccc3n2)cc1 ? 13.7

Then what about the molecule COC(=O)C1=C(C(=O)ON)[C@@H]2C=C[C@@]1([C@@H](Cc1ccccc1)Nc1ccccc1)O2 ? 73.3

Same again, this time with COc1ccc(OC)c(CCn2cncc2-c2c[nH]c3ccccc23)c1 90.3

Repeat for the following molecule: COc1cccc(/C=N/NC(=O)c2cnn3c2NC(c2ccccc2)C3)c1Oc1ccccc1 (stereo not given) 79.1

Now consider CCOc1ccc(/C=N/Nc2cc(C)nc3ccc(Br)cc23)cc1 . 91.6

* * *

- Test system: COLO 205 colon
- runDescription: NCI-60 one-dose screen, 48 h
- statedConditions: 10 µM unless noted
This is part of a sample that, as a whole, favours compounds with a hit. Of some 83,000 tested, about 20% had one in any assay. The source made the active and inactive calls. The calls were made as follows: active = growth percent below 10; inactive = the rest.
Your reply should match one of these outcome classes. active, inactive

# outcome recorded in this test, key = C=C1C(=O)O[C@H]2[C@H]1CC/C(COC(=O)NCc1c[nH]c3ccc(F)cc13)=C\CC[C@@]1(C)O[C@@H]21 active

For O=C(CSc1nc2sc3c(c2c(=O)n1-c1ccc(Cl)cc1)CCCC3)Nc1nc(-c2cccc(Br)c2)cs1 then? inactive

Next molecule: O=C(Cn1c[n+](CC(=O)c2ccc(-c3ccccc3)cc2)c2ccccc21)Nc1cccc2cccnc12 active

Can you check O=C(CCN1CCCC1)Nc1ccc2c(Nc3ccc(Br)cc3)c3ccccc3nc2c1 next? active

Further, for CCc1ccc(CNc2ccc(N3CCOCC3)c(C(=O)O)c2)cc1 ? inactive

Now the molecule CNC(=O)c1cccc(Cn2nc(C)c(NC(=O)c3ccc(COc4ccc(C(F)(F)F)cc4C)cc3)c2C)n1 inactive

Also CN1CCN(C(=O)[C@]23CCC(C)(C)C[C@H]2C2=CC[C@@H]4[C@@]5(C)C/C(=C/c6ccncc6)C(=O)C(C)(C)[C@@H]5CC[C@@]4(C)[C@]2(C)CC3)CC1 , if possible. inactive

And what about the molecule COc1cc(C2C3CC4CCCC[C@H]4N3[C@@]3(C(=O)Nc4cc(Cl)ccc43)C2C(=O)c2nc3ccccc3[nH]2)cc(OC)c1OC (stereo partly drawn) ? inactive
